Here, each record is paired with measured Activity data.
- System: N548 mutant cells
- Protocol summary: in vitro
- Condition details: nonselective hits; scale not defined

Solved entries (count: 2):
CCCC1O[C@@H]2C[C@H]3[C@@H]4CCC5=CC(=O)C=C[C@]5(C)[C@H]4[C@@H](O)C[C@]3(C)[C@]2(C(=O)CO)O1 (stereo partly shown) [Budesonide, reference compound] ... 2
CC[n+]1c(-c2ccccc2)c2cc(N)ccc2c2ccc(N)cc21 [Homidium Bromide, reference compound] ... 1.5

Lookup: Activity / N548 mutant cells / O=C(O)c1cc([N+](=O)[O-])ccc1NCCCc1ccccc1 [Compound 2-NPPB, reference compound]
1.5

Similarly, CCOC(=O)C(C)(C)Oc1ccc(Cl)cc1 [Clofibrate, reference compound] ?
2

Same thing, different compound: CC1=C(/C=C/C(C)=C/C=C/C(C)=C/C(=O)O)C(C)(C)CCC1 [Tretinoin, reference compound]
2.5

Repeat with COC(=O)CC(NC(=O)OC(C)(C)C)C(=O)CF [BOC-D-fmk, reference compound]
3

Item: O=C(O)c1ccccc1Nc1cccc(C(F)(F)F)c1 [Flufenamic Acid, reference compound]
1.5

###

- Protocol summary: Rescue and toxicity of Compound 164 and analogs (Table 4)
- Condition details: Table 4; cell model not stated
Think of 50% as a floor: if Max % Toxicity stands on it or above, it is fulfilled; beneath it, not fulfilled.

Completed entries (count: 7):
COc1ccc(CN(CCC(c2ccccc2)C2CCOC(C)(C)C2)C(=O)c2ccco2)cc1OC (centres unmarked) ... not fulfilled
O=C(c1ccco1)N1CCN(Cc2ccc3c(c2)OCO3)CC1 ... not fulfilled
COc1ccc(CN(CCC2(c3ccccc3)CCOC(C)(C)C2)C(=O)c2ccco2)cc1OC (centres unmarked) ... not fulfilled
COc1ccccc1C1(CCN(Cc2ccccc2)C(=O)c2ccco2)CCOC(C)(C)C1 (centres unmarked) ... fulfilled
Cc1ccc(C2(CCNC(=O)c3ccc(Br)o3)CCOC(C(C)C)C2)cc1 (centres unmarked) ... fulfilled
COc1ccc(CN(CCC2(c3ccccc3)CCOC(C)(C)C2)C(C)=O)cc1OC (centres unmarked) ... not fulfilled
COc1ccc(CN(CCC(c2ccc(OC)cc2)C2CCOC(C)(C)C2)C(=O)c2ccco2)cc1 (centres unmarked) ... fulfilled

For the next question, use this molecule.
Can CC(=O)N(CCC1(c2ccc(C)cc2)CCOC(C(C)C)C1)Cc1ccco1 (centres unmarked) be said to have Max % Toxicity at or above 50%?
fulfilled

###

- Protocol summary: Rescue and toxicity of Compound 164 and analogs (Table 4)
- Condition details: Table 4, toxicity
The entries below are paired with their reported log10 of TC50.
Heads up, the numbers here are log10 of TC50 in µM units.

CCC(=O)N(CCC(Cc1ccccc1)C1CCOC(C)(C)C1)Cc1ccco1 (stereo not shown) ... 0.90
CC[C@@]1(C)CC(CCN(Cc2ccco2)C(C)=O)(c2ccccc2)CCO1 (stereo partly shown) ... 0.90
COc1ccc(CN(CCC2(c3ccc(C)cc3)CCOC(C)(C)C2)C(=O)c2ccco2)cc1 (stereo not shown) ... 0.48
COc1ccc(CN(CCC(c2ccccc2)C2CCOC(C)(C)C2)C(=O)c2ccco2)cc1OC (stereo not shown) ... 0.78
CC(=O)N(CCC1(c2ccc(C)cc2)CCOC(C(C)C)C1)Cc1ccco1 (stereo not shown) ... 0.90
COc1ccc(CN(CCC(c2ccc(OC)cc2)C2CCOC(C)(C)C2)C(=O)c2ccco2)cc1 (stereo not shown) ... 0.30
CC(c1ccccc1)N(CCC(Cc1ccccc1)C1COCC(C)(C)C1)C(=O)c1ccco1 (stereo not shown) ... -0.40
CC(c1ccccc1)N(CCC(c1ccccc1)C1CCOC(C)(C)C1)C(=O)c1ccco1 (stereo not shown) ... 0.60
COc1ccc(CN(CCC(c2ccc(OC(C)C)cc2)C(C)C)C(=O)c2ccco2)cc1 (stereo not shown) ... -0.40

Field: next molecule
Which log10 of TC50 value is on record for COc1ccccc1C1(CCN(Cc2ccccc2)C(=O)c2ccco2)CCOC(C)(C)C1 (stereo not shown) ?
0.23

###

- Protocol summary: Rescue and toxicity of Compound 164 and analogs (Table 4)
Readout name: CC50 (µM)
# output: bare number, implied unit µM

Data request, read-out CC50, for CC1(C)CC(CCN(Cc2ccccc2)C(=O)c2ccco2)(c2ccccc2)CCO1 (stereo not shown)
8

###

- Protocol summary: Rescue and toxicity of Compound 164 and analogs (Table 4)
- Condition details: Table 4; cell model not stated
Each entry below carries its recorded Max % Toxicity.
Lab book: enter the figure in %, no units written.

Look over these answered cases.
CC1(C)CC(CCN(Cc2ccccc2)C(=O)c2ccco2)(c2ccccc2)CCO1 (centres unmarked) ... 53.14
COc1cccc(CN2CCN(C(=O)c3ccco3)CC2)c1 ... 12.00
COc1ccc(CN2CCN(C(=O)c3ccco3)CC2)cc1OC ... 27.77

# input compound: CC(c1ccccc1)N(CCC(c1ccccc1)C1CCOC(C)(C)C1)C(=O)c1ccco1 (centres unmarked) ; wanted: its Max % Toxicity
55.74

Also need COc1ccc(CN(CCC(c2ccc(OC(C)C)cc2)C(C)C)C(=O)c2ccco2)cc1 (centres unmarked) , thanks.
63.90

Try this compound too: CCC(=O)N(CCC(Cc1ccccc1)C1CCOC(C)(C)C1)Cc1ccco1 (centres unmarked)
56.80

What do you have for COc1ccc(CN(CCC2(c3ccc(C)cc3)CCOC(C)(C)C2)C(=O)c2ccco2)cc1 (centres unmarked) ?
60.14

Request: CC(c1ccccc1)N(CCC(Cc1ccccc1)C1COCC(C)(C)C1)C(=O)c1ccco1 (centres unmarked)
64.22

###

- Tested on: N548 mutant cells
- Protocol summary: cells
- Condition details: Rattus norvegicus, ST14A, 72 h
pEC50: −log10 of the molar value.
Please use Condition met whenever pEC50 is not below 6, and Condition not met whenever it is.

Is the recorded value of pEC50 equal to or greater than 6 for this molecule? CC1=C(/C=C/C(C)=C/C=C/C(C)=C/C(=O)O)C(C)(C)CCC1 [Tretinoin, reference compound]
Condition met

Same question, CC[n+]1c(-c2ccccc2)c2cc(N)ccc2c2ccc(N)cc21 [Homidium Bromide, reference compound] this time
Condition not met

###

- Tested on: N548 mutant cells
- Protocol summary: in vitro
- Condition details: nonselective hits; scale not defined
Readout name: Activity
Enter a number only.

Some entries whose results are on file:
CCCOc1ccccc1-c1nc2nn[nH]c2c(=O)[nH]1 [Zaprinast, reference compound] ... 1.5
CCCCC[C@H](O)/C=C/[C@H]1[C@H](O)CC(=O)[C@@H]1C/C=C\CCCC(=O)O [Prostaglandin E2, reference compound] ... 2

Report Activity for C[C@H](O)[C@H](O)[C@H]1CNc2nc(N)[nH]c(=O)c2N1 [Tetrahydrobiopterin, reference compound] tested on N548 mutant cells.
2.5

###

- Test system: PC12 expressing Q103 exon 1 htt
- Protocol summary: PC12 HD model, Alamar Blue viability
- Format: cell-based
- Condition details: — = no activity in the assay (footnote n.a.)
// NB: equality with 20% counts as Not fulfilled; only PC12 rescue: percent increase in viability in compound treated cells above DMSO treated strictly below is Fulfilled

Use these answered entries as a reference point.
CCCc1ccc(CC2=C(O)C(=O)c3ccccc3C2=O)cc1 [revertin-8] ... Fulfilled
CCCCc1ccc(C(=O)N(CCC(=O)N2CCC(Cc3ccccc3)CC2)Cc2ccco2)cc1 [revertin-11] ... Not fulfilled
CCCCCCCCCC(=O)Oc1cc(-c2ccccc2)nn1-c1cccc(F)c1 [revertin-1c] ... Not fulfilled
CCCCCCCCC(=O)N(Cc1ccco1)C(C)c1nc2ccccc2c(=O)n1-c1cc(C)ccc1C (stereo not shown) [revertin-9] ... Not fulfilled
CCCc1cc(OC(=O)c2ccccc2F)n(-c2cccc(F)c2)n1 [revertin-1a] ... Not fulfilled

Take the molecule NNc1nnc(-c2ccccc2)c2ccccc12 [revertin-7] and say whether its PC12 rescue: percent increase in viability in compound treated cells above DMSO treated is less than 20%.
Fulfilled

Repeat with COc1c2c(cc3c1C(CC(=O)/C=C/c1ccco1)[N+](C)(C)CC3)OCO2 (stereo not shown) [revertin-2]
Not fulfilled

###

- Tested on: N548 mutant cells
- Protocol summary: cells
- Condition details: Rattus norvegicus, ST14A, 72 h
Reported EC50 values are given for each entry in this list.
Write the number in nM without appending the unit.

C[C@H](O)[C@H](O)[C@H]1CNc2nc(N)[nH]c(=O)c2N1 [Tetrahydrobiopterin, reference compound] ... 500

Next, consider the following molecule.
Missing value: EC50, N548 mutant cells, entry CCCOc1ccccc1-c1nc2nn[nH]c2c(=O)[nH]1 [Zaprinast, reference compound] . Fill in?
5000

###

- Test system: N548 mutant cells
- Protocol summary: cells
- Condition details: Rattus norvegicus, ST14A, 72 h
Readout name: EC50
Returns: string containing the number followed by the unit.

O=C(O)c1ccccc1Nc1cccc(C(F)(F)F)c1 [Flufenamic Acid, reference compound] ... 5000 nM

What does the record list as EC50 for CCOC(=O)C(C)(C)Oc1ccc(Cl)cc1 [Clofibrate, reference compound] ?
1000 nM

// repeat for CCCC1O[C@@H]2C[C@H]3[C@@H]4CCC5=CC(=O)C=C[C@]5(C)[C@H]4[C@@H](O)C[C@]3(C)[C@]2(C(=O)CO)O1 (stereo partly drawn) [Budesonide, reference compound] and report
500 nM

// provenance: patent US20100022637A1
